- systemTested: Prostaglandin G/H synthase 1 (Ovis aries)
- Sequence (P05979 whole entry): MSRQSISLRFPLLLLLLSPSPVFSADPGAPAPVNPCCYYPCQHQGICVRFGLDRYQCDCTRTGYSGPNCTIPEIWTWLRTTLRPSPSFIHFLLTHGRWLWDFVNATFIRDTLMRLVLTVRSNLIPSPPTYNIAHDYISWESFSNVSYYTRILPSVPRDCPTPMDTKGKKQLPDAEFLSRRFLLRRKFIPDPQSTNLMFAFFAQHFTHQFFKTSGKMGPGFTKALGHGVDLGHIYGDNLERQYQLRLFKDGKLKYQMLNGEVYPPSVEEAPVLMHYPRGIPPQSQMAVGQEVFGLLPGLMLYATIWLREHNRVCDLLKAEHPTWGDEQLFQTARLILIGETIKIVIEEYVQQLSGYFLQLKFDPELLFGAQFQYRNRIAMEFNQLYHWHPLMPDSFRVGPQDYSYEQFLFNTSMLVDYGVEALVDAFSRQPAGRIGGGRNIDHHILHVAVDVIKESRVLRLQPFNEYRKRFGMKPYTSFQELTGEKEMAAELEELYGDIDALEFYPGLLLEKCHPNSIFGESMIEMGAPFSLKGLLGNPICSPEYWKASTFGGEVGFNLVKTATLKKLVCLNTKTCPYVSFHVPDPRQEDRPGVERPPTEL
- runDescription: Inhibition of ram seminal vesicle COX1 assessed as reduction in PGE2 production using arachidonic acid substrate by ELISA
Documented IC50 across a set of compounds
experimentalReadout: IC50 (nM)

INSERT INTO results (givensmiles, experimentalreadout, experimentalvalue) VALUES
  ('COc1ccc(/C=C/c2c(CC=C(C)C)c(O)cc(O)c2CC=C(C)C)cc1', 'IC50', 800),
  ('CC1(C)C=Cc2c(O)cc(/C=C/c3ccc(O)cc3)cc2O1', 'IC50', 13300),
  ('COc1ccc(/C=C/c2c(CC=C(C)C)c(O)cc3c2CCC(C)(C)O3)cc1O', 'IC50', 12600),
  ('CC(C)=CCc1c(O)cc(O)c(CC=C(C)C)c1/C=C/c1ccc(O)cc1', 'IC50', 400),
  ('COc1ccc(/C=C/c2c(CC=C(C)C)c(O)cc(O)c2CC=C(C)C)cc1O', 'IC50', 900);

----------
- systemTested: UniProt P09917
- Sequence (P09917 whole entry): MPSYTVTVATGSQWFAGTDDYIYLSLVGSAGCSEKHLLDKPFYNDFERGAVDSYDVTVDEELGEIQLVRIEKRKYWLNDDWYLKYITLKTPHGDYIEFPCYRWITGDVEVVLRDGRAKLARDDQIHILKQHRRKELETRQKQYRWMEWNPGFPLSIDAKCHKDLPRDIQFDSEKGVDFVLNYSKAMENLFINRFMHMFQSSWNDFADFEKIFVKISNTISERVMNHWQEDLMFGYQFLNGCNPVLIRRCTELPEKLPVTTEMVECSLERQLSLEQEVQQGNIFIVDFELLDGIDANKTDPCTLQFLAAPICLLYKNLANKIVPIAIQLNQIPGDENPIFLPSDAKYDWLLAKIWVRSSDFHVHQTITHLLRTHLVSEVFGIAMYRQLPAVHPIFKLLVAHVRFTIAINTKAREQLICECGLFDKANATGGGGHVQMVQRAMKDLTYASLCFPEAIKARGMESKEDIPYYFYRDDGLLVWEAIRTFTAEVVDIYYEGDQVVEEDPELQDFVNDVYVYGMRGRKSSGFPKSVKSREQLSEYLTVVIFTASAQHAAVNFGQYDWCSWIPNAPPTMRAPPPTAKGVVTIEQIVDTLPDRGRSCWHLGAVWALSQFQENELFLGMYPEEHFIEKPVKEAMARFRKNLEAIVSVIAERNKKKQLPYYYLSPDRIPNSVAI
- runDescription: Inhibition of human recombinant 5-LOX assessed as reduction in leukotriene B4 synthesis using arachidonic acid substrate by ELISA
- cond: read-out: IC50
experimentalReadout: IC50 (nM)

INSERT INTO assay_data (givensmiles, experimentalreadout, experimentalvalue) VALUES
  ('COc1ccc(/C=C/c2c(CC=C(C)C)c(O)cc(O)c2CC=C(C)C)cc1O', 'IC50', 900),
  ('CC1(C)C=Cc2c(O)cc(/C=C/c3ccc(O)cc3)cc2O1', 'IC50', 2400),
  ('COc1ccc(/C=C/c2c(CC=C(C)C)c(O)cc(O)c2CC=C(C)C)cc1', 'IC50', 1100),
  ('CC(C)=CCc1c(O)cc(O)c(CC=C(C)C)c1/C=C/c1ccc(O)cc1', 'IC50', 900);

----------
- System: THP-1
- runDescription: Cytotoxicity against human THP1 cells assessed as reduction in cell viability incubated for 24 hrs by WST1 dye based assay
- cond: THP-1, 24 h
pIC50: −log10 of the molar value.
experimentalReadout: pIC50

INSERT INTO measurements (compound, systemtested, qualifiersign, experimentalvalue) VALUES
  ('COc1cc(/C=C\c2ccc(OC)c(CC=C(C)C)c2)cc(OC)c1', 'THP-1', '<', 5.00),
  ('COc1ccc(/C=C/c2c(CC=C(C)C)c(O)cc3c2CC(O)C(C)(C)O3)cc1 (stereo unspecified)', 'THP-1', '=', 5.74),
  ('COc1ccc(/C=C/c2c(CC=C(C)C)c(O)cc3c2CCC(C)(C)O3)cc1O', 'THP-1', '=', 5.48),
  ('COc1ccc(/C=C/c2c(CC=C(C)C)c(O)cc(O)c2CC=C(C)C)cc1O', 'THP-1', '=', 5.41),
  ('CC1(C)C=Cc2c(O)cc(/C=C/c3ccc(O)cc3)cc2O1', 'THP-1', '<', 5.00),
  ('COc1cc(/C=C/c2ccc(OC)c(CC=C(C)C)c2)cc(OC)c1', 'THP-1', '<', 5.00),
  ('CC(C)=CCc1c(O)cc2c(c1/C=C\c1ccc(O)cc1)CCC(C)(C)O2', 'THP-1', '=', 5.31),
  ('C=CC(C)(C)c1cc(/C=C/c2cc(OC)cc(OC)c2)ccc1OC', 'THP-1', '<', 5.00),
  ('COc1ccc(/C=C/c2c(CC=C(C)C)c(O)cc(O)c2CC=C(C)C)cc1', 'THP-1', '=', 5.57),
  ('CC(C)=CCc1c(O)cc(O)c(CC=C(C)C)c1/C=C/c1ccc(O)cc1', 'THP-1', '=', 4.89),
  ('CC(C)=CCc1c(O)cc(/C=C/c2ccc(O)cc2O)cc1O', 'THP-1', '<', 5.00);

----------
- System: THP-1
- runDescription: Antiinflammatory activity in PMA-differentiated human THP1 cells assessed as inhibition of IL-1beta production at 1 uM pre-incubated for 1 hr before LPS-stimulation for 24 hrs by ELISA
- Type: functional, cell-based
Calls of active or inactive are those of the source. The calls are words filed in the database; no cut-off is given here.
Classes used: TRUE (active), FALSE (inactive)

INSERT INTO assay_data (molecule, category) VALUES
  ('CC1(C)C=Cc2c(O)cc(/C=C/c3ccc(O)cc3)cc2O1 [ARAHYPIN-5]', 'FALSE'),
  ('COc1cc(/C=C/c2ccc(OC)c(CC=C(C)C)c2)cc(OC)c1', 'TRUE'),
  ('C=CC(C)(C)c1cc(/C=C/c2cc(OC)cc(OC)c2)ccc1OC', 'FALSE'),
  ('COc1cc(/C=C\c2ccc(OC)c(CC=C(C)C)c2)cc(OC)c1', 'TRUE'),
  ('CC(C)=CCc1c(O)cc(O)c(CC=C(C)C)c1/C=C/c1ccc(O)cc1', 'TRUE');

----------
- runDescription: Selectivity index, ratio of IC50 for inhibition of ram seminal vesicle COX1 to IC50 for inhibition of human recombinant COX2
experimentalReadout: Ratio IC50

INSERT INTO results (givensmiles, experimentalvalue) VALUES
  ('CC(C)=CCc1c(O)cc(O)c(CC=C(C)C)c1/C=C/c1ccc(O)cc1', 0.07),
  ('COc1ccc(/C=C/c2c(CC=C(C)C)c(O)cc3c2CCC(C)(C)O3)cc1O', 0.36),
  ('COc1ccc(/C=C/c2c(CC=C(C)C)c(O)cc(O)c2CC=C(C)C)cc1O', 0.06),
  ('COc1ccc(/C=C/c2c(CC=C(C)C)c(O)cc(O)c2CC=C(C)C)cc1', 0.17);

----------
- systemTested: Prostaglandin G/H synthase 2 (Homo sapiens, UniProt P35354)
- Sequence (P35354 whole entry): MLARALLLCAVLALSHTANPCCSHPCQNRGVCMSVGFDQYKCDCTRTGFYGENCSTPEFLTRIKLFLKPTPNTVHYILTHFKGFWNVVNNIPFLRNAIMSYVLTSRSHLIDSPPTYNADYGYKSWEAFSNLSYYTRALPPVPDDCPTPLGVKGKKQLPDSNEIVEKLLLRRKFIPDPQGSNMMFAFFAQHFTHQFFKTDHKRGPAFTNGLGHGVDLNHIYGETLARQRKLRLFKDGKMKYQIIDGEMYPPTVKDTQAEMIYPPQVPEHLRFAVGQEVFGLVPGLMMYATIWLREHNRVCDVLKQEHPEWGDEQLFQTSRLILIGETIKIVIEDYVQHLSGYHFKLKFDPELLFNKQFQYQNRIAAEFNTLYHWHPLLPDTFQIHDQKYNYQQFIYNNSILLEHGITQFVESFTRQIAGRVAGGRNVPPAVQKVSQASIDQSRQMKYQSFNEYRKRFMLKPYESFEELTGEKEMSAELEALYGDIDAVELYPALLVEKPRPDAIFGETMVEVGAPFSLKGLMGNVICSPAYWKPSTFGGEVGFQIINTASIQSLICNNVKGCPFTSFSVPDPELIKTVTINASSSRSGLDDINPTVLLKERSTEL
- runDescription: Inhibition of human recombinant COX2 assessed as reduction in PGE2 production using arachidonic acid substrate by ELISA
pIC50: −log10 of the molar value.
Documented pIC50 across a set of compounds
experimentalReadout: pIC50

INSERT INTO results (compound, experimentalreadout, qualifiersign, experimentalvalue) VALUES
  ('COc1ccc(/C=C/c2c(CC=C(C)C)c(O)cc(O)c2CC=C(C)C)cc1', 'pIC50', '=', 5.33),
  ('CC1(C)C=Cc2c(O)cc(/C=C/c3ccc(O)cc3)cc2O1 [ARAHYPIN-5]', 'pIC50', '<', 4.70),
  ('COc1ccc(/C=C/c2c(CC=C(C)C)c(O)cc(O)c2CC=C(C)C)cc1O', 'pIC50', '=', 4.83),
  ('COc1ccc(/C=C/c2c(CC=C(C)C)c(O)cc3c2CCC(C)(C)O3)cc1O', 'pIC50', '=', 4.45),
  ('CC(C)=CCc1c(O)cc(O)c(CC=C(C)C)c1/C=C/c1ccc(O)cc1', 'pIC50', '=', 5.24);
